# Study System: T1, antibody raised against ETAG
# T1 construct: Coated at 500 ng/well; also called E-tag antibody
# Protocol Details: phage ELISA
Kind request: treat 10 OD as inclusive, so ETAG (OD) at 10 OD or higher is Met, anything lower is Not met.

[
  {
    "Binder": "VQSGRDLGGLLRGGTGTEASPAAAGAPVPYPDPLEPRP [DGI-2-20F-PP-D3]",
    "Answer Label": "Met"
  },
  {
    "Binder": "RRFVRCSVPVALRSAVPVSVAAAGAPVPYPDPLEPRP [DGI-2-20F-PP-A10]",
    "Answer Label": "Met"
  },
  {
    "Binder": "VGQSSGDARPLANLFVFPFVAAAGAPVPYPDPLEPRP [DGI-2-20F-PP-F12]",
    "Answer Label": "Met"
  },
  {
    "Binder": "DRSRAPLCADKSGRWQRYRRAAAGAPVPYPDPLEPRP [DGI-2-20F-PP-C10]",
    "Answer Label": "Not met"
  },
  {
    "Binder": "FGSTAYADMLSQFRKFAMNISAAAGAPVPYPDPLEPRP [DGI-2-20F-PP-E1]",
    "Answer Label": "Met"
  },
  {
    "Binder": "WAASCFWGHVALGCGRNGQGAAAGAPVPYPDPLEPRP [DGI-2-20R-3-A11]",
    "Answer Label": "Met"
  }
]
